Target: MCH receptor (Homo sapiens)
Assay: High throughput functional screening FLIPR/FDSS6000: inhibition of MCH-evoked intracellular Ca2+ changes
Assay type: cell-based
Conditions: class by percent of control at 10^−7 M or by IC50; read-out: class
observation-type: IC50

Here are 3 compounds together with their reported answers.
structure_string=COc1cccc(CNC(=O)[C@H]2CC[C@@H](Nc3nc(N(C)C)c4cc(F)c(F)cc4n3)CC2)c1 observation_type=IC50 result="50 to 200 nM"
structure_string=COc1cccc(Oc2ncccc2C(=O)N[C@H]2CC[C@@H](Nc3nc(N(C)C)c4ccccc4n3)CC2)c1 observation_type=IC50 result="< 50 nM"
structure_string=COc1ccc(NC(=O)N[C@H]2CC[C@@H](Nc3nc(N(C)C)c4ccccc4n3)CC2)cc1OC observation_type=IC50 result="< 50 nM"

Consider the record given below.
Provide IC50 value for the following compound: CN(C)c1nc(N[C@H]2CC[C@@H](C(=O)NCc3ccc(OC(F)(F)F)cc3)CC2)nc2cc(F)c(F)cc12
< 50 nM
